From: patent US11510908B2

target.of.assay: hnRNP A18 (Homo sapiens, UniProt Q14011)
Sequence (Q14011 whole entry): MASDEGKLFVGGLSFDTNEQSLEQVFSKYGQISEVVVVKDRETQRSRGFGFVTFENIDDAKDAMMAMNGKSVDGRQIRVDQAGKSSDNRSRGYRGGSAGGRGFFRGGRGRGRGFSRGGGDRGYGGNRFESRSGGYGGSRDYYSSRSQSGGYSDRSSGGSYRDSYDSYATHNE
assay.notes: Fluorescence anisotropy competition binding of hnRNP A18 to fluorescein tagged RNA motif 1
cond: 25° C., 30 min, read-out: IC50, inhibition of hnRNP A18 binding to its cognate RNA
Description: Quantitative assessments of hnRNP A18-RNA binding equilibria were performed using fluorescence anisotropy essentially as described (36). […] Subsequently, total reaction anisotropy (At) and fluorescence intensity were measured using a Beacon 2000 Fluorescence Polarization System (Panvera) equipped with a 490-nm excitation filter and a 535-nm emission filter. […]
measurement.label: log10 of IC50 (log10 of the value in µM)
The figures below represent log10 of IC50, where IC50 is stated in µM.

INSERT INTO measurements (smiles_repr, target_of_assay, numeric_value) VALUES
  ('Cc1sc(NC(=O)c2ccccc2)nc1OC(=O)c1ccccc1', 'hnRNP A18 (Homo sapiens, UniProt Q14011)', 0.46);

Request: Look up log10 of IC50 for this compound: CC(=O)Oc1cccc(C(=O)Nc2ccc(C(=O)Nc3nccs3)cc2)c1
Result: 1.11

Request: Could you share which log10 of IC50 value was measured for COc1ccccc1C(=O)Nc1nc(-c2ccc(C)cc2)c(NC(C)=O)s1 ?
Result: 1.59

Request: Returns the measured log10 of IC50 for the input compound. Input: Cc1nc(NC(=O)c2ccccc2)sc1-c1csc(Nc2ccc(O)c(C(=O)O)c2)n1
Result: 0.81

Request: Fill in: log10 of IC50 of CC(=O)Oc1ccccc1C(=O)Nc1ccccc1Sc1ncnc2scc(-c3ccccc3)c12 is ___
Result: 1.18
